target.under.test: MAP kinase-activated protein kinase 3 (Homo sapiens); note: in the data inactive means no Kd found up to 30 µM
Sequence (Q16644 whole entry): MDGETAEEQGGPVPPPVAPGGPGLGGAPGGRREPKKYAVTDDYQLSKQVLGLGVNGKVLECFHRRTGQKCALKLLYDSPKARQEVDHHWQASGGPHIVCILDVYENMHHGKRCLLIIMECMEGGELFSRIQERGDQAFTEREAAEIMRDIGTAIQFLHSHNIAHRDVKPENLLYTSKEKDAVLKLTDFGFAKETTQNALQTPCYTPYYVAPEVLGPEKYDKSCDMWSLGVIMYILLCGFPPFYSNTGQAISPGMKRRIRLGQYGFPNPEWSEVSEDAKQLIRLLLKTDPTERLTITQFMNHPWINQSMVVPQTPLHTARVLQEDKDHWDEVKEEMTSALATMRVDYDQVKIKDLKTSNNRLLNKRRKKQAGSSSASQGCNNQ
The source made the active and inactive calls.
Field 'call' accepts yes = active, no = inactive

In [3]: df
Out[3]:
                                smiles_repr  category_label
0  C#Cc1cccc(Nc2ncnc3cc4c(cc23)OCCOCCOCCO4)c1              no
1  Cn1c(=O)n(-c2ccc(C(C)(C)C#N)cc2)c2c3cc(-c4cnc5ccccc5c4)ccc3ncc21              no

Hi team, can someone confirm the assay call for O[C@H]1CC[C@H](Nc2ncc3nc(Nc4c(F)cc(F)cc4F)n([C@H]4CCOC4)c3n2)CC1 ? no

Hi team, can someone confirm the assay call for COc1cc2ncnc3c2cc1OCCCCCN(C)Cc1ccc(Br)cc1N3 ? no

Hi team, can someone confirm the assay call for NC(=O)c1ccc(N(C(N)=O)c2c(F)cccc2F)nc1-c1ccc(F)cc1F ? no

Hi team, can someone confirm the assay call for C[C@@]1(C(=O)Nc2ccc(F)nc2)CCCN1c1nc(Nc2cc(C3CC3)n[nH]2)c2cccn2n1 ? no

Hi team, can someone confirm the assay call for COc1cccc2cc(-c3nc([C@H]4CC[C@H](C(=O)O)CC4)n4ncnc(N)c34)[nH]c12 ? no

Hi team, can someone confirm the assay call for CCc1cc2c(cc1N1CCC(N3CCOCC3)CC1)C(C)(C)c1[nH]c3cc(C#N)ccc3c1C2=O ? no
